biological target: PDE1A (Homo sapiens (Human), UniProt P54750); assay: PDE1 inhibition assay, PDE1A; type: biochemical; details: @ 10 μM compound
Sequence (P54750 whole entry): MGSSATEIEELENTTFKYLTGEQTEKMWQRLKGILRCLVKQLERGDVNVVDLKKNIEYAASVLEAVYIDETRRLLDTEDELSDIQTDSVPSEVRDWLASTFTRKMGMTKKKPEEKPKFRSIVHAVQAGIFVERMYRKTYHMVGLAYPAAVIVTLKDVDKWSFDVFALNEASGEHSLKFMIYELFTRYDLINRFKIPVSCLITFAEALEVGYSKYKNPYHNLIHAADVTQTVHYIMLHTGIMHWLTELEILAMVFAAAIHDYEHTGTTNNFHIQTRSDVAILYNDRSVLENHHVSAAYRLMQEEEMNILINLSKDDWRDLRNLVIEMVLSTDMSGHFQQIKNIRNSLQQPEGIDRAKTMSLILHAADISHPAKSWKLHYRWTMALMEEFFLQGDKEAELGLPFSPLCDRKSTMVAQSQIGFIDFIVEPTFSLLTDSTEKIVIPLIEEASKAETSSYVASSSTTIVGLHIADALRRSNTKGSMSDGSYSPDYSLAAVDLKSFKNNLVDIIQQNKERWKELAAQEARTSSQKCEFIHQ
Measure name: inhibition at 10 µM (%)

>  <Structure string>
COc1ncc(C)cc1-c1cc(N[C@@H]2CCOC2)c2c(cnn2C(C)C)n1

>  <inhibition at 10 µM, %>
56

$$$$
>  <Structure string>
COCc1ncccc1-c1cc(N[C@@H]2CCOC2)c2c(cnn2C(C)C)n1

>  <inhibition at 10 µM, %>
52

$$$$
>  <Structure string>
CC(C)n1ncc2nc(-c3cncc(C#N)c3)cc(N[C@@H]3CCOC3)c21

>  <inhibition at 10 µM, %>
33

$$$$
>  <Structure string>
CCOc1ccccc1-c1cc(N[C@@H]2CCOC2)c2c(cnn2C(C)C)n1

>  <inhibition at 10 µM, %>
73

$$$$
>  <Structure string>
CCOc1ccc(-c2cc(N[C@@H]3CCOC3)c3c(cnn3C(C)C)n2)cc1

>  <inhibition at 10 µM, %>
20

$$$$

(P) COc1ncncc1-c1cc(N[C@@H]2CCOC2)c2c(cnn2C(C)C)n1
(Q) COc1ccncc1-c1cc(N[C@@H]2CCOC2)c2c(cnn2C(C)C)n1
(R) COc1cnc(C)c(-c2cc(N[C@@H]3CCOC3)c3c(cnn3C(C)C)n2)c1
(S) CCOc1ncccc1-c1ccn2c(C(C)(C)C)nc(C)c2n1
Sort ascending by inhibition at 10 µM. Sort the labels as requested; that list is your answer.
R, S, P, Q
(R: 20%, S: 29%, P: 43%, Q: 63%)

----------
Entries with their measured IC50, system PDE1C (Homo sapiens (Human), UniProt Q14123):
Measure name: IC50 (µM)

>  <Compound>
CCNc1cc(-c2cccnc2OCC)nc2c(C)nn(C(C)C)c12 [Example 66]

>  <Measure name>
IC50

>  <Reported value>
0.161

$$$$
>  <Compound>
COc1cc(-c2cc(N[C@@H]3CCOC3)c3c(cnn3C(C)C)n2)c(OC)cn1 [Example 38]

>  <Measure name>
IC50

>  <Reported value>
0.566

$$$$
>  <Compound>
CCOc1ncccc1-c1nc2c(C)nc(C(C)C)n2cc1C [Example 71]

>  <Measure name>
IC50

>  <Reported value>
0.099

$$$$

(I) CCOc1ncccc1-c1ccn2c(C3CCCC3)nc(C)c2n1 [Example 80]
(II) CCOc1ncccc1-c1cc(N2CCCC2)c2c(cnn2C)n1 [Example 14]
Which value of IC50 is greater, the one for I or the one for II ? Write down the label attached to your selection.
II
(II: 3.5 µM, I: 2.29 µM)

----------
Entries with their measured IC50, system PDE1A (Homo sapiens (Human)):
Measure name: IC50 (nM)

>  <Compound>
CCOc1ncccc1-c1ccn2c(C3CCCC3)nc(C)c2n1

>  <IC50, nM>
3230

$$$$
>  <Compound>
CCOc1ncccc1-c1cc(N[C@@H]2CCOC2)c2c(cnn2CC)n1 (single isomer, unassigned)

>  <IC50, nM>
326

$$$$
>  <Compound>
CCOc1ncccc1-c1ccn2c(C3CC3)nc(C)c2n1

>  <IC50, nM>
394

$$$$
>  <Compound>
CC(C)n1ncc2nc(-c3cccc4c3OCCO4)cc(N[C@@H]3CCOC3)c21

>  <IC50, nM>
1570

$$$$

(P) CCOc1ncccc1-c1cc(N[C@@H]2CCCOC2)c2c(cnn2C(C)C)n1
(Q) CCOc1ncccc1-c1cc(NCC2CCC(=O)N2C)c2c(n1)c(C)nn2C(C)C (racemic)
(R) COc1ncccc1-c1cc(N[C@@H]2CCOC2)c2c(cnn2C(C)C)n1
(S) Cc1cc2c(nc1-c1ccccc1)c(C)nn2C(C)C
Falling order of IC50, please. Sort the labels as requested; that list is your answer.
P, R, S, Q
